Tested on: HCV replicon 1AY93H
assay-method-text: microbe, parasite or virus in culture
Type: cell-based, Hepatitis C virus (HCV)
test-settings: read-out: 1A Y93H IC50; replicon 1AY93H; Replicon Assay A
assay-endpoint: IC50 (nM)

1) CCc1ccc(C2Oc3cc(-c4cnc([C@@H]5CCCN5C(=O)C(NC(=O)OC)C5CCOC(C)(C)C5)[nH]4)cc(F)c3-c3cc4cc(-c5cnc([C@@H]6CCCN6C(=O)C(NC(=O)OC)C6CCOC(C)(C)C6)[nH]5)ccc4n32)s1 (single isomer, unassigned) [Compound 297]
8.37
2) COC(=O)NC(C(=O)N1CCC[C@H]1c1ncc(-c2ccc3c(c2)cc2n3C(c3ccc(C4CC4)s3)Oc3cc(-c4cnc([C@@H]5CCCN5C(=O)[C@@H](NC(=O)OC)C(C)C)[nH]4)cc(F)c3-2)[nH]1)C1CN(C(=O)C2CC2)C1 (single isomer, unassigned) [Compound 269]
0.28
3) COC(=O)NC(C(=O)N1CCC[C@H]1c1ncc(-c2ccc3c(c2)cc2n3C(c3ccc(C4CC4)s3)Oc3cc(-c4cnc([C@@H]5CCCN5C(=O)[C@@H](NC(=O)OC)C(C)C)[nH]4)cc(F)c3-2)[nH]1)C1CCCCO1 (single isomer, unassigned) [Compound 343]
0.37
4) CCc1ccc(C2Oc3cc(-c4cnc([C@@H]5CCCN5C(=O)C(NC(=O)OC)C5CCOC(C)(C)C5)[nH]4)cc(F)c3-c3cc4cc(-c5cnc([C@@H]6CCCN6C(=O)[C@@H](NC(=O)OC)C(C)C)[nH]5)ccc4n32)s1 (single isomer, unassigned) [Compound 163]
0.058
5) COC(=O)NC(C(=O)N1CCC[C@H]1c1ncc(-c2ccc3c(c2)cc2n3C(c3ccc(C4CC4)s3)Oc3cc(-c4cnc([C@@H]5CCCN5C(=O)[C@@H](NC(=O)OC)C(C)C)[nH]4)cc(F)c3-2)[nH]1)C1CN(C(=O)OC)C1 (single isomer, unassigned) [Compound 228]
0.5
6) COC(=O)NC(C(=O)N1CCC[C@H]1c1ncc(-c2ccc3c(c2)cc2n3C(c3ccc(C4CC4)s3)Oc3cc(-c4cnc([C@@H]5CCCN5C(=O)[C@@H](NC(=O)OC)C(C)C)[nH]4)cc(F)c3-2)[nH]1)C1CCCCO1 (single isomer, unassigned) [Compound 341]
0.52
7) COC(=O)NC(C(=O)N1CCC[C@H]1c1ncc(-c2cc(F)c3c(c2)OC(c2ccc(C4CC4)s2)n2c-3cc3cc(-c4cnc([C@@H]5CCCN5C(=O)[C@@H](NC(=O)OC)C(C)C)[nH]4)ccc32)[nH]1)C1CCOC(C)(C)C1 (single isomer, unassigned) [Compound 213]
13.6
